Target: human FASN (Homo sapiens, UniProt P49327)
Construct: was purified from SKBR3 cells using procedures modified from those in Jayakumar et al; endogenous in cells; host or cells: SKBR3 human breast cancer cells (ATCC); Endogenous enzyme purified by ammonium sulfate precipitation and a mono Q column
Sequence (P49327 whole entry): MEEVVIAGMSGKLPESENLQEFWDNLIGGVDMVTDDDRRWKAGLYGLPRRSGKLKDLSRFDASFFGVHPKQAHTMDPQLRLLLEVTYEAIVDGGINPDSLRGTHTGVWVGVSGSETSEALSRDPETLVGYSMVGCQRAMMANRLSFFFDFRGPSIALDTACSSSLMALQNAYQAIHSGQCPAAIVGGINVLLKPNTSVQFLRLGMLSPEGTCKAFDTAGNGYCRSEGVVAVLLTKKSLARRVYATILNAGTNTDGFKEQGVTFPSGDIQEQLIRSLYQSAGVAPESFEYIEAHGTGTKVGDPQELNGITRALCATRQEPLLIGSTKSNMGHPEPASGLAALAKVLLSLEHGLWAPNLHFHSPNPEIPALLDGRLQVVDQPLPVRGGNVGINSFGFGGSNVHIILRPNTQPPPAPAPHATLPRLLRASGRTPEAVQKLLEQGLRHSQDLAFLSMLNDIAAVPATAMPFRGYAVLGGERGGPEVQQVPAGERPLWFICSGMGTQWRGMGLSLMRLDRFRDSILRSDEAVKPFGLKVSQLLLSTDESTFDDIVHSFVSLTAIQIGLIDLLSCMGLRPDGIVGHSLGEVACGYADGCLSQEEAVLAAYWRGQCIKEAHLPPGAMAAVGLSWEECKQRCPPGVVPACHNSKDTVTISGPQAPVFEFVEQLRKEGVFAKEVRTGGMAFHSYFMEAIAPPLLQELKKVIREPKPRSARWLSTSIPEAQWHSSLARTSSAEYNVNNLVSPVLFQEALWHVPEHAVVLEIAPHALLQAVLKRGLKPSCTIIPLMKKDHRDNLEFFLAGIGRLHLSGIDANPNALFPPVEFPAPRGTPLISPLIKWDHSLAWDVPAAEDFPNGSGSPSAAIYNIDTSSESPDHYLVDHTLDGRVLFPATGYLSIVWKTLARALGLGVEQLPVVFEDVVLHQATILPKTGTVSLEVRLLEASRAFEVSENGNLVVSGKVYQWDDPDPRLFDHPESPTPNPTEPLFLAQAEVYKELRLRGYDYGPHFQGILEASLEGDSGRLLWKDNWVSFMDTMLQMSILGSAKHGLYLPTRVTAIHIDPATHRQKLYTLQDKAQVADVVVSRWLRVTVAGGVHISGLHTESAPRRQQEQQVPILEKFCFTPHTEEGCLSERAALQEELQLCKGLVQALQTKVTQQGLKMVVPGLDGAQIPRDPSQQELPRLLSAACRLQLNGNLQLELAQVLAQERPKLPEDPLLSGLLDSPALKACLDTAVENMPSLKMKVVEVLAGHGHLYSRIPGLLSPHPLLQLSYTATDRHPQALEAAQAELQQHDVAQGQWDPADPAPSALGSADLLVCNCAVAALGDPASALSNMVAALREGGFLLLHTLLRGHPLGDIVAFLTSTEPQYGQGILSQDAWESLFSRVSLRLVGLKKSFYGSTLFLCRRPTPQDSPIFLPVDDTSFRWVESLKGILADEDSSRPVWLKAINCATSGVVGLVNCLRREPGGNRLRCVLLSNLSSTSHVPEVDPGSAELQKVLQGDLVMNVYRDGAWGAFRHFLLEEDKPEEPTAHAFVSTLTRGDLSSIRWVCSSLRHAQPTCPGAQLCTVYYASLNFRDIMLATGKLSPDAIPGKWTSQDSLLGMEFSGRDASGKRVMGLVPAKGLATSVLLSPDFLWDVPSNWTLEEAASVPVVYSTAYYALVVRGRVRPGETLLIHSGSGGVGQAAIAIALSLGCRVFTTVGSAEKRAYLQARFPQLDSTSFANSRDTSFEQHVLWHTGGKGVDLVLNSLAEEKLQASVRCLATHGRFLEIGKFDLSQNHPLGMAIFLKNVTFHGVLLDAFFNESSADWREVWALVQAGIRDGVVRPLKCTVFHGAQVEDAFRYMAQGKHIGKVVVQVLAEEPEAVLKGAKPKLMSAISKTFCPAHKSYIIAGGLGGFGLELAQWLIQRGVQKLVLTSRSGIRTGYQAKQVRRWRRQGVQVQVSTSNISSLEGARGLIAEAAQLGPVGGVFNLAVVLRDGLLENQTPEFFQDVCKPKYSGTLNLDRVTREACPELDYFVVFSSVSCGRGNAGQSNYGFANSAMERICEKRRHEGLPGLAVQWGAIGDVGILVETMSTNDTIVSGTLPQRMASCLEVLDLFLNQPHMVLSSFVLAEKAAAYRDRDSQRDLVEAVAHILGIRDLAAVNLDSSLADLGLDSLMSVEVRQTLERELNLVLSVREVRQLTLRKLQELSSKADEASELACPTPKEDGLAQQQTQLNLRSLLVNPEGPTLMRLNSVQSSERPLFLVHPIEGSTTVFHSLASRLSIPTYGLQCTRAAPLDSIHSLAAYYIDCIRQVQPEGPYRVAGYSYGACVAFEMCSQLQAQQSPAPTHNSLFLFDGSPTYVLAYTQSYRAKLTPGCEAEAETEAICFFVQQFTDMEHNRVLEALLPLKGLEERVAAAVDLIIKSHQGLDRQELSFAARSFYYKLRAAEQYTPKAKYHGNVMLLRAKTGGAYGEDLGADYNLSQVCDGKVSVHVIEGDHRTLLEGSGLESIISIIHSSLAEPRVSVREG
Experiment: FASN NADPH Consumption Assay
Type: biochemical
Details: human FASN purified from SKBR3 cells; starred symbols
pIC50: −log10 of the molar value.
attributeMeasured: pIC50

INSERT INTO results (molecule, recordedmeasurement) VALUES
  ('CCCCc1ccc(-n2nnn(C(=O)N(CC)C3CCCCC3)c2=O)c(C)c1', '< 5.00');

Recorded pIC50 (molecule CCN(C(=O)n1nnn(-c2c(F)cccc2F)c1=O)c1ccc(Br)cc1 ): > 7.22

Recorded pIC50 (molecule CC(C)N(C(=O)n1nnn(-c2c(F)cccc2F)c1=O)c1ccccc1 ): 6.60 to 7.22

Recorded pIC50 (molecule CCN(C(=O)n1nnn(-c2c(F)cccc2C#Cc2ccccc2C)c1=O)c1ccccc1 ): 6.60 to 7.22

Recorded pIC50 (molecule CCN(C(=O)n1nnn(-c2c(Cl)cccc2Cl)c1=O)C1CCC(C(=O)OCc2ccc(OC)cc2)CC1 (centres unmarked) ): < 5.00

----------
Target: human FASN (Homo sapiens)
Construct: was purified from SKBR3 cells using procedures modified from those in Jayakumar et al; endogenous in cells; host or cells: SKBR3 human breast cancer cells (ATCC); Endogenous enzyme purified by ammonium sulfate precipitation and a mono Q column
Experiment: FASN Scintillation Proximity Flashplate Assay
Type: biochemical
Conditions: human FASN purified from SKBR3 cells; unstarred symbols
pIC50: −log10 of the molar value.
attributeMeasured: pIC50

INSERT INTO assay_data (structureassmiles, attributemeasured, recordedmeasurement) VALUES
  ('COc1ccc(N(C(=O)n2nnn(-c3c(F)cccc3C(=O)N(C)c3ccccc3)c2=O)C(C)C)cc1C(=O)O', 'pIC50', '7.00 to 7.82');

Recorded pIC50 (compound COc1ccc(C(=O)OCc2ccccc2)cc1N(CCCc1ccccc1)C(=O)n1nnn(-c2c(F)cccc2F)c1=O ): > 7.82

Recorded pIC50 (compound CC(C)N(C(=O)n1nnn(-c2c(F)cccc2F)c1=O)c1cc(C(=O)O)ccc1Oc1ccccc1 ): > 7.82

Recorded pIC50 (compound COc1ccc(N(C(=O)n2nnn(-c3c(F)cccc3OC)c2=O)C2CCCC2)cc1C(=O)O ): > 7.82

----------
Target: human FASN (Homo sapiens, UniProt P49327)
Construct: was purified from SKBR3 cells using procedures modified from those in Jayakumar et al; endogenous in cells; host or cells: SKBR3 human breast cancer cells (ATCC); Endogenous enzyme purified by ammonium sulfate precipitation and a mono Q column
Assay: FASN NADPH Consumption Assay
Type: biochemical
Conditions: human FASN purified from SKBR3 cells; starred symbols
attributeMeasured: IC50

See these solved cases before continuing.
INSERT INTO measurements (molecule, recordedmeasurement) VALUES
  ('CCN(CC)C(=O)C1CCCN(C(=O)n2nnn(-c3c(Cl)cccc3Cl)c2=O)C1 (centres unmarked)', '1000 to 10000 nM'),
  ('CCN(C(=O)n1nnn(-c2c(F)cccc2OC)c1=O)c1ccc(C(=O)OCc2ccccc2)c(OC)c1', '< 60 nM'),
  ('O=C(OCc1ccccc1)c1ccc(N(CCc2cccnc2)C(=O)n2nnn(-c3c(Cl)cccc3Cl)c2=O)cc1', '250 to 1000 nM'),
  ('CCN(C(=O)n1nnn(-c2c(F)cccc2F)c1=O)c1ccc(C(=O)OCc2ccccc2)cc1', '60 to 250 nM');

Now for another entry.
Recorded IC50 (molecule CCN(C(=O)n1nnn(-c2c(F)cccc2F)c1=O)c1ccc(CCc2ccccc2)cc1F ): 60 to 250 nM

----------
Molecular target: human FASN (Homo sapiens, UniProt P49327)
Construct: was purified from SKBR3 cells using procedures modified from those in Jayakumar et al; endogenous in cells; host or cells: SKBR3 human breast cancer cells (ATCC); Endogenous enzyme purified by ammonium sulfate precipitation and a mono Q column
Assay: FASN NADPH Consumption Assay
Assay type: biochemical
Settings: human FASN purified from SKBR3 cells; starred symbols
pIC50: −log10 of the molar value.
attributeMeasured: pIC50

See these solved cases before continuing.
INSERT INTO assay_data (molecule, attributemeasured, recordedmeasurement) VALUES
  ('CC(=O)N[C@@H]1CCN(C(=O)n2nnn(-c3c(Cl)cccc3Cl)c2=O)C1', 'pIC50', '< 5.00'),
  ('CCN(C(=O)n1nnn(-c2c(Cl)cccc2Cl)c1=O)C1CCCC(C(=O)OCc2ccccc2)C1 (stereo not drawn)', 'pIC50', '5.00 to 6.00');

Now for another entry.
Recorded pIC50 (molecule CCN(CCOC(=O)[C@H](CC(C)C)NC=O)C(=O)n1nnn(-c2c(Cl)cccc2Cl)c1=O ): 5.00 to 6.00

----------
Recorded IC50 by entry
Molecular target: human FASN (Homo sapiens)
Construct: was purified from SKBR3 cells using procedures modified from those in Jayakumar et al; endogenous in cells; host or cells: SKBR3 human breast cancer cells (ATCC); Endogenous enzyme purified by ammonium sulfate precipitation and a mono Q column
Assay: FASN NADPH Consumption Assay
Type: biochemical
Settings: human FASN purified from SKBR3 cells; starred symbols

Fill in: human FASN (Homo sapiens) IC50 for O=C(N1CCCc2ccc(C(F)(F)F)cc21)n1nnn(-c2c(F)cccc2F)c1=O = 250 to 1000 nM

Fill in: human FASN (Homo sapiens) IC50 for CCN(C(=O)n1nnn(-c2c(Cl)cccc2Cl)c1=O)c1cccc(C(=O)NS(=O)(=O)c2ccccc2)c1 = < 60 nM

Fill in: human FASN (Homo sapiens) IC50 for CCN(C(=O)n1nnn(-c2cc(F)ccc2F)c1=O)C1CCCCC1 = 1000 to 10000 nM

----------
Recorded pIC50 by entry
Molecular target: human FASN (Homo sapiens, UniProt P49327)
Construct: was purified from SKBR3 cells using procedures modified from those in Jayakumar et al; endogenous in cells; host or cells: SKBR3 human breast cancer cells (ATCC); Endogenous enzyme purified by ammonium sulfate precipitation and a mono Q column
Experiment: FASN NADPH Consumption Assay
Format: biochemical
Conditions: human FASN purified from SKBR3 cells; starred symbols
Protocol: Human FASN protein (SEQ ID NO. 1) was purified from SKBR3 cells using procedures modified from those in Jayakumar et al. PNAS 1995, 92:8695-8699. […] Each fraction was analyzed by SDS-PAGE and FASN NADPH consumption assay. […] All chemicals were purchased from Sigma (St. Louis, Mo.). […] NADPH consumption was monitored kinetically by fluorescence (λEx=340 nm, λEm=460 nm) on an EnVision 2100 multilabel plate reader (Perkin Elmer, Waltham, Mass.). […]
pIC50: −log10 of the molar value.

INSERT INTO results (compound, recordedmeasurement) VALUES
  ('COc1ccc(CNC(=O)n2nnn(-c3c(Cl)cccc3Cl)c2=O)c(OC)c1', '< 5.00'),
  ('O=C(N1CCCC2CCCCC21)n1nnn(-c2c(F)cccc2F)c1=O (stereo not shown)', '6.60 to 7.22'),
  ('CCN(C(=O)n1nnn(-c2c(Cl)cccc2Cl)c1=O)C1CCCN(C(C)=O)C1 (stereo not shown)', '5.00 to 6.00'),
  ('CCN(C(=O)n1nnn(-c2c(F)cccc2F)c1=O)c1ccc(C#CCC2CCCCC2)cc1F', '6.60 to 7.22'),
  ('CCN(C(=O)n1nnn(-c2c(F)cccc2F)c1=O)c1ccc([N+](=O)[O-])cc1', '6.60 to 7.22'),
  ('CN(C(=O)n1nnn(-c2c(F)cccc2F)c1=O)c1ccc(F)cc1', '6.60 to 7.22'),
  ('O=C(N1CCOCC1)n1nnn(-c2ccccc2Cl)c1=O', '< 5.00'),
  ('CCN(C(=O)n1nnn(-c2c(F)cccc2F)c1=O)c1ccc(Cl)cc1Cl', '6.60 to 7.22'),
  ('CCN(C(=O)n1nnn(-c2c(Cl)cccc2Cl)c1=O)c1cccc(CO)c1', '6.00 to 6.60'),
  ('CN(C(=O)n1nnn(-c2ccccc2Br)c1=O)c1ccccc1', '6.00 to 6.60');

Recorded pIC50 (compound CCN(C(=O)n1nnn(-c2c(C)nn(C)c2C)c1=O)C1CCCCC1 ): < 5.00

Recorded pIC50 (compound CCCN(C(=O)n1nnn(-c2c(F)cccc2F)c1=O)c1ccccc1 ): 6.60 to 7.22

Recorded pIC50 (compound CCN(C(=O)n1nnn(-c2ccccc2OC)c1=O)C1CCCCC1 ): 5.00 to 6.00

----------
Target: human FASN (Homo sapiens)
Construct: was purified from SKBR3 cells using procedures modified from those in Jayakumar et al; endogenous in cells; host or cells: SKBR3 human breast cancer cells (ATCC); Endogenous enzyme purified by ammonium sulfate precipitation and a mono Q column
Test: FASN NADPH Consumption Assay
Type: biochemical
Details: human FASN purified from SKBR3 cells; starred symbols
Recorded IC50 by entry

Recorded IC50 (molecule CCN(C(=O)n1nnn(-c2c(Cl)cccc2Cl)c1=O)c1cccc([N+](=O)[O-])c1 ): 0.06 to 0.25 µM

Recorded IC50 (molecule O=C(OCc1ccccc1)c1ccc2c(c1)CCCN2C(=O)n1nnn(-c2c(Cl)cccc2Cl)c1=O ): 1 to 10 µM

Recorded IC50 (molecule CN(C(=O)n1nnn(-c2ccccc2Cl)c1=O)c1ccccc1F ): 0.06 to 0.25 µM

Recorded IC50 (molecule CCN(C(=O)n1nnn(-c2c(F)cccc2F)c1=O)c1cccc(F)c1F ): < 0.06 µM

Recorded IC50 (molecule CCN(C(=O)n1nnn(-c2c(Cl)cccc2Cl)c1=O)c1ccc(NS(=O)(=O)C(F)(F)F)cc1 ): 0.06 to 0.25 µM

Recorded IC50 (molecule COc1ccc(C(=O)O)cc1N(CCCCc1ccccc1)C(=O)n1nnn(-c2c(F)cccc2F)c1=O ): 0.06 to 0.25 µM

Recorded IC50 (molecule CCN(C(=O)n1nnn(-c2c(Cl)cc(Cl)cc2Cl)c1=O)C1CCCCC1 ): 1 to 10 µM

Recorded IC50 (molecule Cc1ccc2c(c1)CCCN2C(=O)n1nnn(-c2c(F)cccc2F)c1=O ): 0.06 to 0.25 µM

Recorded IC50 (molecule C/C=C(/C)c1ccc(N(C)C(=O)n2nnn(-c3ccccc3Cl)c2=O)cc1 ): 0.25 to 1 µM

Recorded IC50 (molecule CN(C(=O)n1nnn(-c2c(F)cccc2F)c1=O)c1ccccn1 ): 0.25 to 1 µM

Recorded IC50 (molecule CN(C(=O)n1nnn(-c2c(F)cccc2F)c1=O)c1ccc(C#Cc2ccccc2)cc1 ): 0.06 to 0.25 µM

Recorded IC50 (molecule CCN(C(=O)n1nnn(-c2ccccc2OC)c1=O)c1cc(C(=O)O)ccc1Cl ): < 0.06 µM

Recorded IC50 (molecule CCN(C(=O)n1nnn(-c2c(F)cccc2C(=O)OC)c1=O)c1ccccc1 ): 0.06 to 0.25 µM

Recorded IC50 (molecule CN(C)N(C(=O)n1nnn(-c2ccccc2F)c1=O)C1=CCCCC1 ): 0.25 to 1 µM

Recorded IC50 (molecule CCN(C(=O)n1nnn(-c2ccc(F)cc2F)c1=O)C1CCCCC1 ): 1 to 10 µM

Recorded IC50 (molecule COC(=O)C1CCc2ccccc2N1C(=O)n1nnn(-c2ccccc2Oc2ccccc2)c1=O (stereo not drawn) ): 0.25 to 1 µM
